molecular target: HLA-A*68:01; test: IEDB peptide-MHC binding, purified MHC/competitive/radioactivity; filed as Kd, often an IC50 or EC50 that approximates it; bounds were set here for any values at or beyond the usual limits of such assays; conditions: source organism: Homo sapiens
Quantity Kind: pKd
API: returns pKd as number; meaning -log10 of concentration in mol/L.

**Query** Read the entry "ESLFRAVITK" and write its reported pKd.
**Result** 5.74

====

target: HLA-A*33:01; experiment: IEDB peptide-MHC binding, purified MHC/competitive/radioactivity; filed as Kd, often an IC50 or EC50 that approximates it; bounds were set here for any values at or beyond the usual limits of such assays; conditions: source organism: Hepatitis C virus (isolate Taiwan)
pKd: −log10 of the molar value.
Quantity Kind: pKd

**Query** Read the entry "GVAGALVAFK" and write its reported pKd.
**Result** ≤ 4.58
